Assay: DSSTox (CPDBAS) Carcinogenic Potency Database Summary MultiCellCall Results
Conditions: animal carcinogenicity bioassays, multi-cell call summary
Active and inactive are the calls of the source.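 Rule for the calls: active = tumour findings in long-term animal cancer tests in more than one sex, species or organ; inactive = no tumour finding and more than one negative test.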
Thanks in advance; please answer with one of these: active, inactive

Task: Kindly provide the recorded test outcome for the following compound: "FC(F)(F)CCl"
Output: active

Task: Kindly provide the recorded test outcome for the following compound: "ClC1=C(Cl)[C@]2(Cl)[C@@H]3[C@H]4C[C@H]([C@@H]5O[C@H]45)[C@@H]3[C@@]1(Cl)C2(Cl)Cl"
Output: inactive

Task: Kindly provide the recorded test outcome for the following compound: "COc1cc(/C=C/C(=O)CC(=O)/C=C/c2ccc(O)c(OC)c2)ccc1O"
Output: inactive

Task: Kindly provide the recorded test outcome for the following compound: O=NN1CCCC1c1ccc[n+]([O-])c1 (configuration not stated)
Output: active

Task: Kindly provide the recorded test outcome for the following compound: "CC(N)=O"
Output: active

Task: Kindly provide the recorded test outcome for the following compound: CC1=C(C(=O)OC(C)C)C(c2cccc([N+](=O)[O-])c2)C(C(=O)OC2CN(C(c3ccccc3)c3ccccc3)C2)=C(N)N1 (configuration not stated)
Output: inactive

Task: Kindly provide the recorded test outcome for the following compound: "CCOC(=O)[C@]1(c2ccccc2)CCC=C[C@H]1N(C)C"
Output: inactive

Task: Kindly provide the recorded test outcome for the following compound: "C=COC(C)=O"
Output: active

Task: Kindly provide the recorded test outcome for the following compound: "O=NN1CCSCC1"
Output: active

Task: Kindly provide the recorded test outcome for the following compound: "O=S(=O)([O-])[O-].[O]=[V+2]"
Output: inactive

Task: Kindly provide the recorded test outcome for the following compound: "ClC(Cl)C(Cl)Cl"
Output: active

Task: Kindly provide the recorded test outcome for the following compound: "N#CC(c1ccccc1)c1ccccc1"
Output: inactive

Task: Kindly provide the recorded test outcome for the following compound: C1CCC(C(CC2CCCCN2)C2CCCCC2)CC1 (configuration not stated)
Output: inactive

Task: Kindly provide the recorded test outcome for the following compound: CC(O)CN(CC(O)CO)N=O (configuration not stated)
Output: active

Task: Kindly provide the recorded test outcome for the following compound: "CC(C)[N+](=O)[O-]"
Output: inactive

Task: Kindly provide the recorded test outcome for the following compound: O=P1(N(CCCl)CCCl)NCCCO1 (configuration not stated)
Output: active

Task: Kindly provide the recorded test outcome for the following compound: CC(C)(Oc1ccc(C2CCCc3ccccc32)cc1)C(=O)O (configuration not stated)
Output: active

Task: Kindly provide the recorded test outcome for the following compound: "O=C(O)C(Cl)(Cl)Cl"
Output: active

Task: Kindly provide the recorded test outcome for the following compound: "C[C@H](CCC(=O)O)[C@H]1CC[C@H]2[C@@H]3CC[C@@H]4C[C@H](O)CC[C@]4(C)[C@H]3CC[C@]12C"
Output: inactive

Task: Kindly provide the recorded test outcome for the following compound: "CN=C(NC#N)NCCSCc1nc[nH]c1C"
Output: inactive

Task: Kindly provide the recorded test outcome for the following compound: "Nc1cc(S(=O)(=O)O)cc2cc(S(=O)(=O)O)c(N=Nc3ccc(-c4ccc(N=Nc5c(S(=O)(=O)O)cc6cc(S(=O)(=O)O)cc(N)c6c5O)cc4)cc3)c(O)c12"
Output: active

Task: Kindly provide the recorded test outcome for the following compound: "O=C(Nc1ccc([N+](=O)[O-])cc1Cl)c1cc(Cl)ccc1O"
Output: inactive

Task: Kindly provide the recorded test outcome for the following compound: CC(O)CN(C)c1ccc(NN)nn1 (configuration not stated)
Output: inactive

Task: Kindly provide the recorded test outcome for the following compound: "COc1ccc(O)cc1"
Output: active

Task: Kindly provide the recorded test outcome for the following compound: "O=[N+]([O-])c1ccc(-c2cnc3ccccn23)o1"
Output: active

Task: Kindly provide the recorded test outcome for the following compound: "CCO"
Output: active

Task: Kindly provide the recorded test outcome for the following compound: "N#CS"
Output: inactive
